# Tested on: c-Abl (mouse)
# Test: phosphorylation enrichment, bacterial display (enrichment ratio); higher = better substrate or ligand; peptides without Tyr show the background;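 further: 11-residue human phosphosite peptides and single-mutation variants displayed on the E. coli surface, counted by deep sequencing, each peptide's frequency after selection divided by its frequency in the unselected input library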;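 further: frequency after pTyr selection over input frequency; kinase dosed for 20-30% of maximal phosphorylation in three min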

[
  {
    "Monomer Sequence": "SPRDTYSDRSG [CTPS1_Y567]",
    "phosphorylation enrichment": 0.608
  },
  {
    "Monomer Sequence": "YGGLRYGYGVL [KRTAP20-2_Y13]",
    "phosphorylation enrichment": 0.536
  },
  {
    "Monomer Sequence": "QHNPEYVQQAT [LRRC7_Y1058_S1063T]",
    "phosphorylation enrichment": 0.517
  },
  {
    "Monomer Sequence": "AKIDGYITSYR",
    "phosphorylation enrichment": 0.565
  },
  {
    "Monomer Sequence": "HRGSLYLAIEF [TEK_Y899_Y897S_YF]",
    "phosphorylation enrichment": 1.19
  },
  {
    "Monomer Sequence": "MTRDIYRASYY [ALK_Y1278_A1274T]",
    "phosphorylation enrichment": 2.42
  },
  {
    "Monomer Sequence": "SHMVDYQPFRK [TEX37_Y25_YF]",
    "phosphorylation enrichment": 0.967
  },
  {
    "Monomer Sequence": "TGNPAYRSFSN [IL4R_Y497_A492T]",
    "phosphorylation enrichment": 0.441
  },
  {
    "Monomer Sequence": "GAVGHYVLAER [HFE_Y342_M339V]",
    "phosphorylation enrichment": 0.46
  }
]

---

# Tested Target: Hck (UniProt P08631)
# Sequence (P08631 whole entry, looked up): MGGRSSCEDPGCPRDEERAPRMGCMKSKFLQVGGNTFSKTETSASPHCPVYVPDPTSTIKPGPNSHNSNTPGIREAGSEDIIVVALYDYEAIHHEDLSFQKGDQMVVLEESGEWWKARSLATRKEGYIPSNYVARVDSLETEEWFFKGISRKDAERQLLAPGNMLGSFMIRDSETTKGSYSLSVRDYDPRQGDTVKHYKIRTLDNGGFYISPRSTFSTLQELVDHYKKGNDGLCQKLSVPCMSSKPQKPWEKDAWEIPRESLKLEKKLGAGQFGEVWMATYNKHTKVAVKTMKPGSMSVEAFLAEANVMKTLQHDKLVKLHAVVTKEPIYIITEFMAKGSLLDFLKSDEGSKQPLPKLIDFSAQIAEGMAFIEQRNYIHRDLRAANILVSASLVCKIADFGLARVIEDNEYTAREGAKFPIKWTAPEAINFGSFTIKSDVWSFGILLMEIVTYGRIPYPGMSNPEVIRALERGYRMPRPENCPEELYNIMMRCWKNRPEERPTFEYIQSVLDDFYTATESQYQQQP
# Test: phosphorylation enrichment, bacterial display (enrichment ratio); higher = better substrate or ligand; peptides without Tyr show the background
If the reported phosphorylation enrichment equals or exceeds 0.7, assign Fulfilled. If not, assign Not fulfilled.

[
  {
    "Monomer Sequence": "KGPNVCKKTVN [REV3L_Y1156_Y1156C]",
    "Tested Target": "Hck (UniProt P08631)",
    "Category": "Not fulfilled"
  },
  {
    "Monomer Sequence": "DFKIIYIAPMR [SNRNP200_Y540]",
    "Tested Target": "Hck (UniProt P08631)",
    "Category": "Not fulfilled"
  },
  {
    "Monomer Sequence": "WQQQSYLFSGI [CTNNB1_Y30_D32Y_YF]",
    "Tested Target": "Hck (UniProt P08631)",
    "Category": "Not fulfilled"
  },
  {
    "Monomer Sequence": "EIIPFYGMSSY [FNDC3B_Y175_T179S]",
    "Tested Target": "Hck (UniProt P08631)",
    "Category": "Fulfilled"
  },
  {
    "Monomer Sequence": "TVFENYVADIE [RHOA_Y42]",
    "Tested Target": "Hck (UniProt P08631)",
    "Category": "Not fulfilled"
  },
  {
    "Monomer Sequence": "KFADVYVGICL [B3GALNT1_Y269_E266A]",
    "Tested Target": "Hck (UniProt P08631)",
    "Category": "Fulfilled"
  },
  {
    "Monomer Sequence": "PTEAQYRFIFM [PTPN11_Y511_Q506P_YF]",
    "Tested Target": "Hck (UniProt P08631)",
    "Category": "Fulfilled"
  },
  {
    "Monomer Sequence": "VECRVYAEDPF [PCCA_Y401_YF]",
    "Tested Target": "Hck (UniProt P08631)",
    "Category": "Not fulfilled"
  },
  {
    "Monomer Sequence": "ALKWGYTVKGI [OAT_Y158_R154L]",
    "Tested Target": "Hck (UniProt P08631)",
    "Category": "Not fulfilled"
  },
  {
    "Monomer Sequence": "SSSGGYGGGYG [KRT19_Y61_A60G]",
    "Tested Target": "Hck (UniProt P08631)",
    "Category": "Not fulfilled"
  },
  {
    "Monomer Sequence": "VEDQYYCVDCY [FHL1_Y208]",
    "Tested Target": "Hck (UniProt P08631)",
    "Category": "Fulfilled"
  },
  {
    "Monomer Sequence": "GHEEFYSTHPH [LRRK2_Y1402_R1398H]",
    "Tested Target": "Hck (UniProt P08631)",
    "Category": "Fulfilled"
  },
  {
    "Monomer Sequence": "KDKLPYLYDDP [GPX2_Y125_P126L]",
    "Tested Target": "Hck (UniProt P08631)",
    "Category": "Not fulfilled"
  }
]
